Data provenance is paper PMC10577085.

Biological target: the molecule itself
Experiment: SEC
Recorded metric: stoichiometry N
Kindly provide the number alone.

Protein	Recorded metric	Measured number
Cpl-1 W210A:F218A:Y238A triple mutant (enzyme, bacteriophage Cp-1, UniProt P15057 1-339, looked up) MVKKNDLFVDVSSHNGYDITGILEQMGTTNTIIKISESTTYLNPCLSAQVEQSNPIGFYHFARFGGDVAEAEREAQFFLDNVPMQVKYLVLDYEDDPSGDAQANTNACLRFMQMIADAGYKPIYYSYKPFTHDNVDYQQILAQFPNSLWIAGYGLNDGTANFEYFPSMDGIRWWQYSSNPFDKNIVLLDDEEDDKPKTAGTWKQDSKGWAFRRNNGSAPYNKWEKIGGVWYYFDSKGACLTSEWLKDNEKWYYLKDNGAMATGWVLVGSEWYYMDDSGAMVTGWVKYKNNWYYMTNERGNMVSNEFIKSGKGWYFMNTNGELADNPSFTKEPDGLITVA	stoichiometry N	2
Cpl-1 Y238A (enzyme, bacteriophage Cp-1, UniProt P15057 1-339, looked up) MVKKNDLFVDVSSHNGYDITGILEQMGTTNTIIKISESTTYLNPCLSAQVEQSNPIGFYHFARFGGDVAEAEREAQFFLDNVPMQVKYLVLDYEDDPSGDAQANTNACLRFMQMIADAGYKPIYYSYKPFTHDNVDYQQILAQFPNSLWIAGYGLNDGTANFEYFPSMDGIRWWQYSSNPFDKNIVLLDDEEDDKPKTAGTWKQDSKGWWFRRNNGSFPYNKWEKIGGVWYYFDSKGACLTSEWLKDNEKWYYLKDNGAMATGWVLVGSEWYYMDDSGAMVTGWVKYKNNWYYMTNERGNMVSNEFIKSGKGWYFMNTNGELADNPSFTKEPDGLITVA	stoichiometry N	2

--- query ---
## Task Entry Cpl-1 W210A (enzyme, bacteriophage Cp-1, UniProt P15057 1-339, looked up) MVKKNDLFVDVSSHNGYDITGILEQMGTTNTIIKISESTTYLNPCLSAQVEQSNPIGFYHFARFGGDVAEAEREAQFFLDNVPMQVKYLVLDYEDDPSGDAQANTNACLRFMQMIADAGYKPIYYSYKPFTHDNVDYQQILAQFPNSLWIAGYGLNDGTANFEYFPSMDGIRWWQYSSNPFDKNIVLLDDEEDDKPKTAGTWKQDSKGWAFRRNNGSFPYNKWEKIGGVWYYFDSKGYCLTSEWLKDNEKWYYLKDNGAMATGWVLVGSEWYYMDDSGAMVTGWVKYKNNWYYMTNERGNMVSNEFIKSGKGWYFMNTNGELADNPSFTKEPDGLITVA : reported stoichiometry N = ?
## Result 2
